Biological target: Nitric oxide synthase 1 (Rattus norvegicus)
Sequence (P29476 whole entry): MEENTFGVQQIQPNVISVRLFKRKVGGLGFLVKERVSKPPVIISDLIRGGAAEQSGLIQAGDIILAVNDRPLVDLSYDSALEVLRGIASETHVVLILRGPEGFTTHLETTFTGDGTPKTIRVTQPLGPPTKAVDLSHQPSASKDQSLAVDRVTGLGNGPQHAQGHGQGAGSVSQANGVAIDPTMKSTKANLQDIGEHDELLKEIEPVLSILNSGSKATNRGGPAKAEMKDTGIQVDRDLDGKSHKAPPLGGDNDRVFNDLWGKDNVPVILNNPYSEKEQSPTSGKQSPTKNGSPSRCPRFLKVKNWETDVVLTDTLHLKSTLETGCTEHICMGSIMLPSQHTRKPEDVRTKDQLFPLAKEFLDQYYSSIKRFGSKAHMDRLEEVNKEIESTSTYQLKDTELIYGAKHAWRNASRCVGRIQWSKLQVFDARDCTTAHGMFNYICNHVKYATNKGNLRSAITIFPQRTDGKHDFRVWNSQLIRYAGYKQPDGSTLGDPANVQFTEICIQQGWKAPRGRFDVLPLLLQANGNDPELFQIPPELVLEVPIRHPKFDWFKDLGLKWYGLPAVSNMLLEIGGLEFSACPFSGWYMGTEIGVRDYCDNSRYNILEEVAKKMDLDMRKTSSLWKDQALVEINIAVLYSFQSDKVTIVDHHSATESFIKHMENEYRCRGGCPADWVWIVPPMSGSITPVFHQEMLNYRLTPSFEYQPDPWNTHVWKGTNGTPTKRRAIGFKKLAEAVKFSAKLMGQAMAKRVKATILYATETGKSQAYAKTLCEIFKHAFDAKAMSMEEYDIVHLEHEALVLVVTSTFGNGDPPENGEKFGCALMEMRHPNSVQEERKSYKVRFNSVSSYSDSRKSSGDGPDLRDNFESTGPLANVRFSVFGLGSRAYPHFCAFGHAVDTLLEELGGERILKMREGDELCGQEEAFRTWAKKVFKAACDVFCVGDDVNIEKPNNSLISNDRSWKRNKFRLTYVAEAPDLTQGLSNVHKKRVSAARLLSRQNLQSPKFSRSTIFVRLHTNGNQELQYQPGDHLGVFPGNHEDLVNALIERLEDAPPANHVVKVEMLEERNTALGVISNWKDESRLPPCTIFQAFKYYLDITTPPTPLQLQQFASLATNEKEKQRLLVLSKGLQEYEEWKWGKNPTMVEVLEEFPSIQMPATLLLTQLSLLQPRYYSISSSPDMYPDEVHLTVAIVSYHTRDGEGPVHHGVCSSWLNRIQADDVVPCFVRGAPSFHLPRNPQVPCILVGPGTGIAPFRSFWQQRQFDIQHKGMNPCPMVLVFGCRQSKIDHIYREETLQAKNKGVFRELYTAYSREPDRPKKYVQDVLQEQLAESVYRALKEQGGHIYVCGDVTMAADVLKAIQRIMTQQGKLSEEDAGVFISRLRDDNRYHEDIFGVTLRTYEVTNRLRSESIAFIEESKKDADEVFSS
Assay: Inhibition of rat recombinant nNOS expressed in Escherichia coli assessed as nitric oxide production by hemoglobin capture assay
Residues, ends and D or L forms follow the SMILES beside them.
Overview of reported Ki across a group of compounds:
measured_property: Ki (µM)

# compound, test_result
measured = [
    ("NC(=N[N+](=O)[O-])NCCC[C@H](N)C(=O)N[C@@H]1CCNC1", 0.22),
    ("CN[C@@H](CCCNC(N)=N[N+](=O)[O-])C(=O)N[C@@H]1CCNC1", 1.08),
    ("CN[C@@H](CCCNC(=N)N[N+](=O)[O-])C(=O)N[C@H]1CN[C@H](C(N)=O)C1", 1.09),
    ("NC(=N[N+](=O)[O-])NCCC[C@H](N)C(=O)N[C@H]1CCNC1", 1.76),
    ("CN[C@@H](CCCNC(N)=N[N+](=O)[O-])C(=O)N[C@@H]1CCCNC1", 2.26),
    ("NC(=N[N+](=O)[O-])NCCC[C@H](N)C(=O)N[C@@H]1CCCNC1", 0.48),
    ("CN[C@@H](CCCNC(N)=N[N+](=O)[O-])C(=O)NC1CCNCC1", 2.38),
    ("N=C(NCCC[C@H](N)C(=O)N[C@H]1CCCNC1)N[N+](=O)[O-]", 7.62),
    ("N=C(NCCC[C@H](N)C(=O)NC1CCNCC1)N[N+](=O)[O-]", 0.47),
    ("C[C@H](NC(=O)[C@H](CC(N)=O)NC(=O)[C@@H](N)CC(N)=O)C(=O)O (H-Asn-Asn-Ala-OH)", 0.61),
    ("NC(=O)[C@@H]1C[C@@H](NC(=O)[C@@H](N)CCC/N=C(\\N)N[N+](=O)[O-])CN1", 0.33),
]
